Consider the following molecules and their measured Potency readings.
Biological target: DNA polymerase eta (Homo sapiens)
Experiment: qHTS for Inhibitors of Polymerase Eta: Confirmatory Assay for Cherry-picked Compounds (AID 720502); note: potency is the fitted concentration of half-maximal effect
Details: Pol eta primer extension, TAMRA/BHQ fluorescence, 10 min
The other results are listed elsewhere or left out. Inconclusive results are not listed. Activity calls are given as the source filed them. Calls come from the whole dose curve; as a rule, active = well fitted inhibition curve with a large enough effect; inconclusive = small, poorly fitted or top-dose-only effect, or another doubt; inactive = no such curve, though single readings can be large or run the other way.

Q: Any idea what Potency came out for `CCOc1cccc2c1N[C@@H](c1ccc(C(=O)O)cc1)[C@H]1CC=C[C@@H]21` on DNA polymerase eta (Homo sapiens)?
A: 7.57 µM (active)

Q: Identify the measured Potency of `COc1ccccc1C(=O)N/C(=C/c1ccco1)C(=O)Nc1ccc(C(=O)O)cc1` for DNA polymerase eta (Homo sapiens).
A: 53.6 µM (active)

Q: Find Potency (DNA polymerase eta (Homo sapiens)) for the entry `CCOc1ccccc1/C=c1\sc2nc(-c3ccco3)nn2c1=O`
A: 60.1 µM (active)

More entries:
Q: Any idea what Potency came out for `CC1=NN(c2ccc(Cl)c(C(=O)O)c2)C(=O)/C1=C/c1ccc(-c2ccccc2[N+](=O)[O-])o1` on DNA polymerase eta (Homo sapiens)?
A: 75.7 µM (active)

Q: Query Potency on DNA polymerase eta (Homo sapiens) for `O=C(Nc1ccc(S(=O)(=O)Nc2nccs2)cc1)c1cc(-c2ccncc2)nc2ccccc12`
A: 67.5 µM (active)

Q: Report Potency for `O=C1Nc2ccc([N+](=O)[O-])cc2C1=Nc1cccc(CO)c1` tested on DNA polymerase eta (Homo sapiens).
A: 75.7 µM (active)

Q: Find Potency (DNA polymerase eta (Homo sapiens)) for the entry `CCCN1CCN(C(=O)Cn2ncc3ccccc32)CC1`
A: 75.7 µM (active)

Q: Recorded Potency for `O=C(CSc1nc2ccccc2c(=O)[nH]1)Nc1nc(-c2ccc(Br)cc2)cs1` with DNA polymerase eta (Homo sapiens), please?
A: 75.7 µM (active)

Q: Look up Potency with DNA polymerase eta (Homo sapiens) for this molecule: Cc1c(CC(=O)N2CCN(C(=O)C3COc4ccccc4O3)CC2)c(=O)oc2c(O)c(O)ccc12 (stereo unspecified)
A: 7.57 µM (active)

Q: Identify the measured Potency of `COC(=O)Cc1cc(=O)n(-c2nc3ccccc3s2)[nH]1` for DNA polymerase eta (Homo sapiens).
A: 84.9 µM (active)

Q: Return Potency measured with DNA polymerase eta (Homo sapiens) given this molecule: Cc1cc(C)cc(C(=O)NC2C(=O)N3C(C(=O)O)=C(CSc4nnc(C)s4)CSC23)c1 (stereo unspecified)
A: 26.9 µM (active)

====

Biological target: Cytochrome P450 3A4 (Homo sapiens)
Experiment: qHTS Assay for Activators of Cytochrome P450 3A4 (AID 885); note: nearly all actives have a fitted effect of over 65% in size
Details: recombinant CYP3A4, Luciferin-PPXE luminescence, 60 min; series mostly up to 57.1 µM
Activity calls are given as the source filed them. Calls follow the shape of the dose curve; as a rule, active = well fitted activation curve with a large enough effect; inconclusive = small, poorly fitted or top-dose-only effect; inactive = no such curve, though single readings can be large or run the other way.
readout-label: activity change, positive = activation

Example cases with answers are listed next.
Q: # query: activity change, positive = activation of entry COC(=O)c1ccc(C(NC(=O)OCc2ccccc2)/C(C)=C/[C@@H](C)C(=O)NCc2cccnc2)cc1 (stereo partly drawn)
A: inactive

Q: Which activity change, positive = activation is reported for this compound? COC(=O)c1ccc(C23CC4(C2)[C@H](CN(C)[C@@H]4c2ccccc2)C3c2ccccc2)cc1 (stereo partly drawn)
A: inactive

Q: I have this compound here, CC#CC(C)C(OCOC)C(CC(C)Cc1cc(Br)cc(OCc2ccccc2)c1OC)OC (stereo not drawn) , and I need its recorded activity change, positive = activation.
A: -76.2% [at 11.4 µM] (inactive)

Q: Would you mind telling me what activity change, positive = activation value was observed for `CCC1=C2CC[C@H]3C(=O)N(CC(=O)OC)C(=O)[C@H]3[C@H]2[C@@]2(Cc3ccccc3)C(=NCCc3c[nH]c4ccccc34)OC(=O)N2C1=O` ?
A: inactive

Q: What does the record list as activity change, positive = activation for `COc1ccc(O[C@H]2C=C[C@@H](c3ccccc3)O[C@@H]2CON=C(C)C)cc1` ?
A: -40.2% [at 11.4 µM] (inactive)

Q: # lookup: activity change, positive = activation of `COc1ccc(O[C@H]2C=C[C@@H](c3ccccc3)O[C@@H]2CO/N=C(\C)CCN2CCCCc3nc(C)c(C)cc32)cc1`
A: -86.9% [at 11.4 µM] (inactive)

Q: Record request: activity change, positive = activation value, item `CO/N=C\c1ccc(C(=O)N2[C@H](c3ccc(C)cc3)[C@@H](C)CC[C@H]2C(=O)OC)cc1`
A: -64.1% [at 11.4 µM] (inactive)

Proceed to the following item.
Q: Which activity change, positive = activation is listed for `COc1cccc([C@@H]2Oc3ccc(Br)cc3C(=O)[C@H]2O)c1` ?
A: -74.4% [at 11.4 µM] (inactive)
